# assayText: Plasma and brain exposure after 5-month repeated oral
# Format: in vivo, mouse
# assayConditions: 0.002% in diet, 5 months, plasma
quantityKind: Cmax (nM)

> print(dat)
                                   compound  quantitykind  unit  measurement
1  CN1CCCC1CCNS(=O)(=O)c1ccc2c(c1)CN(CC1CCCCC1)CC2 (stereo not shown)          Cmax    nM         24.8
